Tested on: Bentgrass
Experiment: Turf grass selectivity, greenhouse pot test
Format: in vivo, Agrostris palustris
Conditions: 200 g ai/ha, 4 weeks
Source text: Turf mats of Zoysia grass, bentgrass, Kentucky bluegrass, or perennial rye grass known as cool season turfgrass or western grass were purchased and cut into a piece having 10 cm×20 cm size. Then, each piece was transplanted in a rectangular plastic pot (surface area of 300 cm^2) in which sandy loam and mixed top soil (Boo-Nong Top Soil No. 3, for horticultural use) are filled in 1:1 ratio. […]
readout kind: phytotoxicity (visual assessment 0-10)

                                   molecule  experimental_value
0  COc1cc(OC)nc(NC(=O)NS(=O)(=O)c2ncccc2C(F)(F)F)n1 [Control chemical No. 2, Flazasulfuron, reference compound]                  10
1  Cc1cc(C)nc(NC(=O)NS(=O)(=O)c2ccccc2C(O)C(C)F)n1 (stereo not shown)                   1
2  CCOC(=O)c1cnn(C)c1S(=O)(=O)NC(=O)Nc1nc(OC)cc(OC)n1 [Control chemical No. 1, Pyrazosulfuron ethyl, reference compound]                   0
3  COc1nc(C)nc(NC(=O)NS(=O)(=O)c2cscc2C2(CF)OCCO2)n1                  10
